Tested on: A. fumigatus CEA10 reference strain
Assay: Fluconazole potentiator screen: MIC by CLSI microbroth dilution with and without fluconazole
Assay type: cell-based, Aspergillus fumigatus
Conditions: with 32 μg/ml fluconazole; normoxia; GMM, 18 h, 37 °C
measurementType: MIC (ug/mL) (+) Fluc

See these solved cases before continuing.
1. O=C(c1ccccc1Cl)N1CCC(Cc2ccc(COc3ccncc3)cc2)CC1 [MBX-8091] : >21 µg/mL
2. O=S(=O)(c1cccs1)N1CCC2(CC1)CC(CCN1CCOCC1)CCO2 (centres unmarked) [MBX-8245] : >20 µg/mL
3. O=C(c1cccc(Cl)c1)N1CCC(Cc2ccc(COc3ccncc3)cc2)CC1 [MBX-8092] : >21 µg/mL
4. O=S(=O)(C1COC1)N1CCC2(CC1)CC(CCOc1ccncc1)CCO2 (centres unmarked) [MBX-7956] : >79 µg/mL

Value of MIC (ug/mL) (+) Fluc reported for the compound Cc1cnccc1OCc1ccc(CC2CCN(C(=O)c3ccsc3)CC2)cc1 [MBX-8140] is >20 µg/mL

###

Recorded MIC (ug/mL) (+) Fluc values for a group of molecules are listed next.
System: A. fumigatus CEA10 reference strain
Test: Fluconazole potentiator screen: MIC by CLSI microbroth dilution with and without fluconazole
Assay type: cell-based, Aspergillus fumigatus
Conditions: with 32 μg/ml fluconazole; normoxia; GMM, 18 h, 37 °C

Value of MIC (ug/mL) (+) Fluc reported for the molecule O=C(c1cccc(O)c1)N1CCC(Cc2ccc(COc3ccncc3)cc2)CC1 is >16 µg/mL

Value of MIC (ug/mL) (+) Fluc reported for the molecule CN1CCN(S(=O)(=O)N2CCC3(CC2)CC(CCOc2ccncc2)CCO3)CC1 (stereo not shown) is >87 µg/mL

Value of MIC (ug/mL) (+) Fluc reported for the molecule O=C(c1ccsc1)N1CCC(Cc2ccc(Oc3ccncc3)cc2)CC1 is >37 µg/mL

Value of MIC (ug/mL) (+) Fluc reported for the molecule O=C(c1ccsc1)N1CCC(Cc2ccc(CO)cc2)CC1 is >15.8 µg/mL

###

Test system: A. fumigatus CEA10 reference strain
Test: Fluconazole potentiator screen: MIC by CLSI microbroth dilution with and without fluconazole
Format: cell-based, Aspergillus fumigatus
Details: with 32 μg/ml fluconazole; normoxia; GMM, 18 h, 37 °C
measurementType: MIC (ug/mL) (+) Fluc

1) O=C(c1ccsc1)N1CCC(Cc2ccc(COc3cc[n+]([O-])cc3)cc2)CC1 [MBX-8191] : >20 µg/mL
2) O=S(=O)(c1cccc(F)c1)N1CCC(Cc2ccc(N3CCOCC3)cc2)CC1 [MBX-8222] : >21 µg/mL
3) CCc1ccc(C(=O)N2CCC(Cc3ccc(COc4ccncc4)cc3)CC2)cc1 [MBX-8087] : >18 µg/mL
4) CC(C)(O)c1ccc(C(=O)N2CCC(Cc3ccc(COc4ccncc4)cc3)CC2)cc1 [MBX-8139] : >22 µg/mL

Shifting focus to the compound that follows.
Value of MIC (ug/mL) (+) Fluc reported for the compound O=C(c1ccsc1)N1CCC(Cc2ccc(CNc3ccncc3)cc2)CC1 [MBX-8085] is >19 µg/mL

###

Test system: A. fumigatus CEA10 reference strain
Experiment: Fluconazole potentiator screen: MIC by CLSI microbroth dilution with and without fluconazole
Format: cell-based, Aspergillus fumigatus
Settings: with 32 μg/ml fluconazole; normoxia; GMM, 18 h, 37 °C
measurementType: MIC (ug/mL) (+) Fluc

1) Cc1cc(OCc2ccc(CC3CCN(C(=O)c4ccsc4)CC3)cc2)ccn1 : >20 µg/mL
2) c1cc(OCc2ccc(CC3CCNCC3)cc2)ccn1 : >14 µg/mL
3) O=C(c1c[nH]cn1)N1CCC(Cc2ccc(COc3ccncc3)cc2)CC1 : >15 µg/mL
4) COc1cc(OCc2ccc(CC3CCN(C(=O)c4ccsc4)CC3)cc2)ccn1 : >21 µg/mL
5) O=S(=O)(c1ccsc1)N1CC2(CN(CCOc3ccncc3)C2)C1 : >18 µg/mL

Value of MIC (ug/mL) (+) Fluc reported for the molecule O=C(c1ccc(CC2CCN(S(=O)(=O)c3cccc(F)c3)CC2)cc1)N1CCOCC1 is >22 µg/mL

Source of measurements: patent US20260373138A1
